Sourced from PubChem BioAssay AID1159583

Assignment: determine reported fluorescence inhibition for the given compounds.
Assay: hypoxia reporter signal reduction in M. tuberculosis – fluorescence, absorbance growth readout, primary screen (AID 1159583)
Details: M. tuberculosis hypoxia-regulated fluorescent reporter, hits give high values, concentration not given here
Hit rate of the full screen: of about 300,000 compounds, about 310 (0.1%) were called active. The sample holds actives, similar compounds and a random draw of the others, so the mix is not that of the screen.
# unit: % | format: bare number

Query: Please report the recorded fluorescence inhibition for COc1cccc(CNC(=O)COC(=O)CN2C(=O)NC3(CCCCC3C)C2=O)c1 (centres undefined) .
Reply: -6.03

Query: What do you have for Cc1ccc(NCC(=O)NN=Cc2ccc([N+](=O)[O-])o2)cc1 ?
Reply: -3.3

Query: Repeat for the following compound: O=C(NN=Cc1ccccc1)C(O)c1ccccc1 (centres undefined)
Reply: -2.65

Query: And what about the compound O=C1CSC(=S)N1N=Cc1ccc(C(F)(F)F)cc1 ?
Reply: 17.6

Query: Note, next up: O=C1N=C(N2CCOCC2)S/C1=C\C=C/c1ccccc1
Reply: 16.7

Query: Now consider COc1cccc(C=NNC(=O)CSCC(=O)Nc2ccccc2)c1O .
Reply: 0.94

Query: Same read-out for COc1cccc(CNC(=O)CN2C(=O)NC(Cc3ccccc3)(c3ccccc3)C2=O)c1 (centres undefined) ?
Reply: 26.4

Query: Next: CCOC(=O)C1=C(N)n2c(sc(=Cc3ccncc3)c2=O)=C(C(=O)OCC)C1c1ccncc1 (centres undefined)
Reply: -2.3

Query: Another compound: CN(C)c1ccc(C=NNC(=O)c2nonc2N)cc1[N+](=O)[O-]
Reply: 2.61

Query: Lookup Cc1c(C=NNC(=O)c2ccc(F)cc2)cnn1C
Reply: 2.95

Query: Next: Cc1ccsc1/C=C1\SC(N2CCOCC2)=NC1=O
Reply: 59.8

Query: Here is the next compound: COC(=O)[C@]1(Cc2ccccc2)NC(c2ccc(-c3cccc(Cl)c3)c(OC)c2)C2C(=O)N(C)C(=O)C21 (some centres undefined)
Reply: 1.8

Query: And then CCCCN=C1NC(=Cc2ccco2)C(=O)N1c1ccccc1 , what is it?
Reply: 8.24

Query: # iterate: CCCCNC(=O)CN1C(=O)NC(Cc2ccccc2)(Cc2ccccc2)C1=O
Reply: 3.73

Query: Likewise for Cc1cc(C=NO)c(C)n1-c1ccccc1 ?
Reply: 10.5

Query: Follow-up entry: COc1ccc2c(c1)C1C(CO2)C(c2ccccc2)[C@]2(C)C(=O)Nc3cc(F)c(F)cc3C(=O)N12 (some centres undefined)
Reply: 12.4

Query: Then what about the compound Cc1cccc(C(=O)NN=C2SCC(=O)N2Cc2ccccc2)c1 ?
Reply: -0.985

Query: Param item: O=C1CC2c3c(cccc3CN1Cc1ccc(F)cc1)CC(O)C2O (centres undefined)
Reply: 13.8

Query: Further, for O=[N+]([O-])c1ccccc1NN=Cc1cccc(O)c1O ?
Reply: 9.33

Query: Next: CCCCN1C(N)=NCC1CCCCN (centres undefined)
Reply: 3.89

Query: Can you check COc1ccc(C(N)=NOC(=O)c2cccc([N+](=O)[O-])c2)cc1 next?
Reply: 2.69

Query: Check CC(=NNC(=O)C(=O)Nc1ccc(C)c(Cl)c1)c1ccncc1 too.
Reply: 9.7

Query: Then this compound: COc1ccc(Cl)cc1C(=O)NN=Cc1ccc(N2CCOCC2)cc1
Reply: -1.94

Query: Now the same for Cc1ccc(C=NNC(=O)Nc2ccccc2)o1
Reply: 14.8
